System: human neutrophils
Assay: Neutrophil oxidative burst, DHR oxidation
Conditions: Homo sapiens, Neutrophil, read-out: IC50 (Mean ± SEM), inhibition of AgNP 4 nm-induced oxidative burst
Experimental: All patient-related procedures and protocols were performed in accordance with the Declaration of Helsinki and approved by the Ethics Committee of Centro Hospitalar do Porto. […] Cells were resuspended in Tris buffer (25 mM Tris, 1.26 mM CaCl2, 5.37 mM KCl, 0.81 mM MgSO4, 140 mM NaCl and 5.55 mM D-Glucose) and the cell viability and cell yield (number of cells/mL) were determined by the trypan blue exclusion method using a Neubauer chamber. […]
reported_property: IC50 (nM)
Response body: numeric value in nM, unit text excluded.

The compound identified as O=c1c(O)c(-c2ccc(O)c(O)c2)oc2c(O)c(O)cc(O)c12 registered its IC50 at 2100

---

System: human neutrophils
Assay: Neutrophil oxidative burst, DHR oxidation
Settings: Homo sapiens, Neutrophil, read-out: IC50 (Mean ± SEM), inhibition of AgNP 4 nm-induced oxidative burst, AgNP 4 nm, human neutrophils, DHR
The following compounds are listed with their measured IC50 values.

Recorded IC50, per entry:
>>> observed_measurement("O=c1c(O)c(-c2cc(O)c(O)c(O)c2)oc2cc(O)cc(O)c12")
"2300 nM"
>>> observed_measurement("O=c1c(O)c(-c2ccc(O)c(O)c2)oc2cc(O)cc(O)c12")
"< 1000 nM"

Item: O=c1c(O)c(-c2ccc(O)cc2O)oc2cc(O)cc(O)c12 | IC50: 1400 nM

Recorded result, O=c1cc(-c2ccc(O)c(O)c2)oc2cc(O)cc(O)c12 , IC50: 1300 nM

Record O=c1c(O)c(-c2ccc(O)c(O)c2)oc2cc(O)c(O)c(O)c12 , field IC50: < 1000 nM

---

System: Caco-2 cell line
Assay: MTT reduction assay, cytotoxicity in Caco-2 cells
Details: Caco-2 cells, 24 h, MTT assay, tested 3.13 to 50 μM
reported_property: Selected Maximum Concentration (maximum non-cytotoxic flavonoid concentration) (µM)
Hi! Could you send only the number? It should be in µM, unit omitted.

>>> observed_measurement("O=c1c(O)c(-c2ccc(O)c(O)c2)oc2cc(O)c(O)c(O)c12")
50.0
>>> observed_measurement("O=c1cc(-c2ccc(O)c(O)c2)oc2cc(O)cc(O)c12")
12.5
>>> observed_measurement("O=c1c(O)c(-c2ccc(O)cc2O)oc2cc(O)cc(O)c12")
50.0
>>> observed_measurement("O=c1c(O)c(-c2ccc(O)c(O)c2)oc2cc(O)cc(O)c12")
25.0

Selected Maximum Concentration (maximum non-cytotoxic flavonoid concentration) reading for O=c1c(O)c(-c2cc(O)c(O)c(O)c2)oc2cc(O)cc(O)c12 : 50.0
